Reported Kb is given for each of the following molecules.
Biological target: LHRH (Rattus norvegicus, UniProt P30969)
Construct: endogenous in cells; host or cells: rat pituitary cells (own knowledge of the cited Haviv 1989 method)
Sequence (P30969 1-327): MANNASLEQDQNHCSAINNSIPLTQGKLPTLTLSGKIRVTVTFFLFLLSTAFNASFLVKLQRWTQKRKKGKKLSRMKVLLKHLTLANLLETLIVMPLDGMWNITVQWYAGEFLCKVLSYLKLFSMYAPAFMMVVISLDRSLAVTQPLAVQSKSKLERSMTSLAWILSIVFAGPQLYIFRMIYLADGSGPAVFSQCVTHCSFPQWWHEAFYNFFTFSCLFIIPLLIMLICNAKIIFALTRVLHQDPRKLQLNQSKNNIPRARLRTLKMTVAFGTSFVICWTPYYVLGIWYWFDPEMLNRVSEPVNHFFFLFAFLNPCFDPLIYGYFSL
Assay: in vitro test for LHRH antagonist potency (pA2)
Type: cell-based
Details: negative logarithm of the antagonist concentration required to shift the response curve produced by the agonist leuprolide to two-fold higher concentration
Procedure: Representative compounds of the present invention were evaluated in an in vitro test for LHRH antagonist potency (pA2). The test employed the method detailed in F. Haviv, et al. J. Med. Chem., 32:2340-2344 (1989). The values of pA2 are the negative logarithms of the concentration of the particular antagonist test compound required to shift the response curve produced by the agonist leuprolide to two-fold higher concentration. […]
Non-standard residues stand in square brackets, D forms with d. Residues, ends and D or L forms follow the SMILES beside them. *: point of attachment. dAla(benzothien-2-yl) = N[C@H](Cc1cc2ccccc2s1)C(=O)O; dPhe(4-Cl) = N[C@H](Cc1ccc(Cl)cc1)C(=O)O; d1Nal = N[C@H](Cc1cccc2ccccc12)C(=O)O; Lys(iPr) = CC(C)NCCCC[C@H](N)C(=O)O; NMeY = CN[C@@H](Cc1ccc(O)cc1)C(=O)O; Nicotinoyl = O=C(c1cccnc1)*; Sar = CNCC(=O)O
Could you give me the number in pM? Just the number is fine.

The molecule CC(C)C[C@H](NC(=O)[C@@H](CCCCNC(=O)c1cccnc1)NC(=O)[C@H](Cc1ccc(O)cc1)N(C)C(=O)[C@H](CO)NC(=O)[C@@H](Cc1cc2ccccc2s1)NC(=O)[C@@H](Cc1ccc(Cl)cc1)NC(=O)CN(C)C(=O)CNC(=O)c1cccnc1)C(=O)N[C@@H](CCCCNC(C)C)C(=O)N1CCC[C@H]1C(=O)N[C@H](C)C(N)=O [Example 35b] (Nicotinoyl-G[Sar][dPhe(4-Cl)][dAla(benzothien-2-yl)]S[NMeY][dK](Nicotinoyl)L[Lys(iPr)]P[dA]-NH2) , tested on LHRH (Rattus norvegicus, UniProt P30969), showed Kb of 79.4

Continuing:
The molecule CC(C)C[C@H](NC(=O)[C@@H](CCCCNC(=O)c1cccnc1)NC(=O)[C@H](Cc1ccc(O)cc1)N(C)C(=O)[C@H](CO)NC(=O)[C@@H](Cc1cccc2ccccc12)NC(=O)[C@@H](Cc1ccc(Cl)cc1)NC(=O)CN(C)C(=O)CNC(=O)c1cccnc1)C(=O)N[C@@H](CCCCNC(C)C)C(=O)N1CCC[C@H]1C(=O)N[C@H](C)C(N)=O [Example 35a] (Nicotinoyl-G[Sar][dPhe(4-Cl)][d1Nal]S[NMeY][dK](Nicotinoyl)L[Lys(iPr)]P[dA]-NH2) , tested on LHRH (Rattus norvegicus, UniProt P30969), showed Kb of 100

----------
Reported Kb is given for each of the following molecules.
Molecular target: LHRH (Rattus norvegicus, UniProt P30969)
Construct: endogenous in cells; host or cells: rat pituitary cells (own knowledge of the cited Haviv 1989 method)
Experiment: in vitro test for LHRH antagonist potency (pA2)
Format: cell-based
Settings: negative logarithm of the antagonist concentration required to shift the response curve produced by the agonist leuprolide to two-fold higher concentration
Non-standard residues stand in square brackets, D forms with d. Residues, ends and D or L forms follow the SMILES beside them. *: point of attachment. Shikimoyl = O=C(C1=C[C@@H](O)[C@@H](O)[C@H](O)C1)*; dPhe(4-Cl) = N[C@H](Cc1ccc(Cl)cc1)C(=O)O; d2Nal = N[C@H](Cc1ccc2ccccc2c1)C(=O)O; Lys(iPr) = CC(C)NCCCC[C@H](N)C(=O)O; NMeY = CN[C@@H](Cc1ccc(O)cc1)C(=O)O; d3Pal = N[C@H](Cc1cccnc1)C(=O)O; Nicotinoyl = O=C(c1cccnc1)*; X1 = O=C([C@@H]1CCCO1)*; Sar = CNCC(=O)O

Some molecules with recorded Kb:
Kb for CC(C)C[C@H](NC(=O)[C@@H](CCCCNC(=O)c1cccnc1)NC(=O)[C@H](Cc1ccc(O)cc1)N(C)C(=O)[C@H](CO)NC(=O)[C@@H](Cc1cccnc1)NC(=O)[C@H](Cc1ccc(Cl)cc1)NC(=O)[C@@H](Cc1ccc2ccccc2c1)NC(=O)CNC(=O)[C@@H]1CCCO1)C(=O)N[C@@H](CCCCNC(C)C)C(=O)N1CCC[C@H]1C(=O)N[C@H](C)C(N)=O is 141 pM

Kb for CC(C)C[C@H](NC(=O)[C@@H](CCCCNC(=O)C1=C[C@@H](O)[C@@H](O)[C@H](O)C1)NC(=O)[C@H](Cc1ccc(O)cc1)N(C)C(=O)[C@H](CO)NC(=O)[C@@H](Cc1cccnc1)NC(=O)[C@@H](Cc1ccc(Cl)cc1)NC(=O)[C@@H](Cc1ccc2ccccc2c1)NC(=O)CNC(=O)c1cccnc1)C(=O)N[C@@H](CCCNC(=N)N)C(=O)N1CCC[C@H]1C(=O)N[C@H](C)C(N)=O [Example 14k] (Nicotinoyl-G[d2Nal][dPhe(4-Cl)][d3Pal]S[NMeY][dK](Shikimoyl)LRP[dA]-NH2) is 10 pM

Continuing:
Kb for CC(C)C[C@H](NC(=O)[C@@H](CCCCNC(=O)c1cccnc1)NC(=O)[C@H](Cc1ccc(O)cc1)N(C)C(=O)[C@H](CO)NC(=O)[C@@H](Cc1cccnc1)NC(=O)[C@@H](Cc1ccc(Cl)cc1)NC(=O)CN(C)C(=O)CNC(=O)[C@@H]1CCCO1)C(=O)N[C@@H](CCCCNC(C)C)C(=O)N1CCC[C@H]1C(=O)N[C@H](C)C(N)=O [Example 101] (X1-G[Sar][dPhe(4-Cl)][d3Pal]S[NMeY][dK](Nicotinoyl)L[Lys(iPr)]P[dA]-NH2) is 42700 pM

----------
Molecular target: LHRH (Rattus norvegicus)
Construct: endogenous in cells; host or cells: rat pituitary cells (own knowledge of the cited Haviv 1989 method)
Sequence (P30969 1-327): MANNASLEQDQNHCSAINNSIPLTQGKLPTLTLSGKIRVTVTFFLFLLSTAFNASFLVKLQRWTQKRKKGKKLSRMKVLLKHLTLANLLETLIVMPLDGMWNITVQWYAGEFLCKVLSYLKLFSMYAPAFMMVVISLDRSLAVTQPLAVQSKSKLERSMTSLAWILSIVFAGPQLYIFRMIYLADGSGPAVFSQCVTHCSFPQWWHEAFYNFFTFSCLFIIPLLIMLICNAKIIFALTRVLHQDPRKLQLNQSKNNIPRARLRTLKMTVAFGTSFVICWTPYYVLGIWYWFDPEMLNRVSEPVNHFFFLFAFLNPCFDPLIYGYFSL
Test: in vitro test for LHRH antagonist potency (pA2)
Type: cell-based
Conditions: negative logarithm of the antagonist concentration required to shift the response curve produced by the agonist leuprolide to two-fold higher concentration
Description: Representative compounds of the present invention were evaluated in an in vitro test for LHRH antagonist potency (pA2). The test employed the method detailed in F. Haviv, et al. J. Med. Chem., 32:2340-2344 (1989). The values of pA2 are the negative logarithms of the concentration of the particular antagonist test compound required to shift the response curve produced by the agonist leuprolide to two-fold higher concentration. […]
Non-standard residues stand in square brackets, D forms with d. Residues, ends and D or L forms follow the SMILES beside them. *: point of attachment. Shikimoyl = O=C(C1=C[C@@H](O)[C@@H](O)[C@H](O)C1)*; dPhe(4-Cl) = N[C@H](Cc1ccc(Cl)cc1)C(=O)O; d2Nal = N[C@H](Cc1ccc2ccccc2c1)C(=O)O; NMeY = CN[C@@H](Cc1ccc(O)cc1)C(=O)O; d3Pal = N[C@H](Cc1cccnc1)C(=O)O; βAla = NCCC(=O)O
Reported Kb is given for each of the following compounds.
Could you give me the number in nM? Just the number is fine.

Kb for CC(C)C[C@H](NC(=O)[C@@H](CCCCNC(=O)C1=C[C@@H](O)[C@@H](O)[C@H](O)C1)NC(=O)[C@H](Cc1ccc(O)cc1)N(C)C(=O)[C@H](CO)NC(=O)[C@@H](Cc1cccnc1)NC(=O)[C@@H](Cc1ccc(Cl)cc1)NC(=O)[C@@H](Cc1ccc2ccccc2c1)NC(=O)CCNC(=O)C1=C[C@@H](O)[C@@H](O)[C@H](O)C1)C(=O)N[C@@H](CCCNC(=N)N)C(=O)N1CCC[C@H]1C(=O)N[C@H](C)C(N)=O [Example 27e] ({Shikimoyl-βAla}-[d2Nal][dPhe(4-Cl)][d3Pal]S[NMeY][dK](Shikimoyl)LRP[dA]-NH2) is 0.0347

Let us examine a further case.
Kb for CC(C)C[C@H](NC(=O)[C@@H](CCCCNC(=O)C1=C[C@@H](O)[C@@H](O)[C@H](O)C1)NC(=O)[C@H](Cc1ccc(O)cc1)N(C)C(=O)[C@H](CO)NC(=O)[C@@H](Cc1cccnc1)NC(=O)[C@@H](Cc1ccc(Cl)cc1)NC(=O)[C@@H](Cc1ccc2ccccc2c1)NC(=O)[C@@H](C)NC(=O)C1=C[C@@H](O)[C@@H](O)[C@H](O)C1)C(=O)N[C@@H](CCCNC(=N)N)C(=O)N1CCC[C@H]1C(=O)N[C@H](C)C(N)=O [Example 14d] (Shikimoyl-[dA][d2Nal][dPhe(4-Cl)][d3Pal]S[NMeY][dK](Shikimoyl)LRP[dA]-NH2) is 0.00891

src = patent US5502035A
